assay: Apparent partition coefficient 1-octanol/phosphate buffer pH 7.4; type: physicochemical; settings: octanol/buffer, pH 7.4, di-esters (Table 3); read-out: log P octanol/buffer pH 7.4
Task for the reader: assign each of the following compounds its reported logD.

A selection of reference data follows.
[
  {
    "compound": "CC[C@H](C(=O)OCc1ccc(Cl)cc1)[C@H](COC(=O)c1ccccc1)Cc1cncn1C",
    "logD": 4.75
  },
  {
    "compound": "CC[C@H](C(=O)OCc1ccccc1)[C@H](COC(=O)c1cccnc1)Cc1cncn1C",
    "logD": 2.9
  },
  {
    "compound": "CC[C@H](C(=O)OCCc1ccccc1)[C@H](COC(=O)c1ccccc1)Cc1cncn1C",
    "logD": 4.6
  },
  {
    "compound": "CC[C@H](C(=O)OCc1ccc(C)cc1)[C@H](COC(C)=O)Cc1cncn1C",
    "logD": 3.16
  }
]

Moving on to the next compound.
Query: Can you look up the measured logD of CCCC(=O)OCC(Cc1cncn1C)C(CC)C(=O)OCc1ccc(C)cc1 (centres unmarked) for me?
Response: 4.09

###

experiment: Hydrolysis/stability of O-acyl pilocarpic acid esters in plasma-free buffer (specific base catalysis); assay type: physicochemical; conditions: buffer, pH 7.4, 20° C.; hydrolysis in buffer pH 7.4, extrapolated (Table 2 footnote c); read-out: t0.5 values at 20° C. (converted)
Task for the reader: assign each of the following compounds its reported half-life.
Answers are plain numbers, in days.

[
  {
    "compound": "CC[C@H](C(=O)OCc1ccc(C)cc1)[C@H](COC(=O)c1ccccc1)Cc1cncn1C [Example 11]",
    "unit_tag": "days",
    "half-life": 1640
  }
]

Moving on to the next compound.
Query: Can you look up the measured half-life of CC[C@H](C(=O)OCc1ccc(C)cc1)[C@H](COC(C)=O)Cc1cncn1C [Example 12] for me?
Response: 511

###

assay: Degradation of O-acyl pilocarpic acid esters and formation of pilocarpine in 75% human plasma; format: in vitro ADME; details: 75% plasma; 75% human plasma (pH 7.4) at 37° C., after formation from the O-acyl esters
quantity: half-life

Query: Can you look up the measured half-life of CC[C@H](C(=O)OCc1ccc(C)cc1)[C@H](CO)Cc1cncn1C for me?
Response: 1.38 h

###

Task for the reader: assign each of the following molecules its reported half-life.
assay: Hydrolysis/stability of O-acyl pilocarpic acid esters in plasma-free buffer (specific base catalysis); type: physicochemical; conditions: buffer, pH 7.4, 37° C.; extrapolated from rate constants at pH 10-12 to pH 7.4; read-out: t0.5 of hydrolysis to pilocarpic acid 4-methylbenzyl ester, pH 7.4 buffer (converted)
Answers are plain numbers, in days.

[
  {
    "molecule": "CC[C@H](C(=O)OCc1ccc(C)cc1)[C@H](COC(C)=O)Cc1cncn1C [Example 12]",
    "quantity": "half-life",
    "number": 62.5
  }
]

Moving on to the next molecule.
Query: Can you look up the measured half-life of CC[C@H](C(=O)OCc1ccc(C)cc1)[C@H](COC(=O)c1ccccc1)Cc1cncn1C [Example 11] for me?
Response: 200

###

test: Degradation of O-acyl pilocarpic acid esters and formation of pilocarpine in 75% human plasma; format: in vitro ADME; conditions: human, 75% plasma, pH 7.4; 37° C.; di-esters (Table 3); read-out: t0.5 human plasma (75%)
quantity: half-life (min)
Numbers only, in min.

A selection of reference data follows.
[
  {
    "molecule": "CC[C@H](C(=O)OCc1ccccc1)[C@H](COC(=O)c1cccnc1)Cc1cncn1C",
    "unit_tag": "min",
    "half-life": 6
  },
  {
    "molecule": "CC[C@H](C(=O)OCc1ccccc1)[C@H](COC(=O)Cc1ccccc1)Cc1cncn1C",
    "unit_tag": "min",
    "half-life": 4
  },
  {
    "molecule": "CC[C@H](C(=O)OCc1ccccc1)[C@H](COC(=O)c1ccccc1)Cc1cncn1C",
    "unit_tag": "min",
    "half-life": 12
  },
  {
    "molecule": "CCCC(=O)OCC(Cc1cncn1C)C(CC)C(=O)OCc1ccc(C)cc1 (stereo not shown)",
    "unit_tag": "min",
    "half-life": 15
  },
  {
    "molecule": "CC[C@H](C(=O)OCCc1ccccc1)[C@H](COC(=O)c1ccccc1)Cc1cncn1C",
    "unit_tag": "min",
    "half-life": 15
  },
  {
    "molecule": "CC[C@H](C(=O)OCc1ccc(Cl)cc1)[C@H](COC(=O)c1ccccc1)Cc1cncn1C",
    "unit_tag": "min",
    "half-life": 17
  }
]

Query: Can you look up the measured half-life of CC[C@H](C(=O)OCc1ccccc1)[C@H](COC(=O)c1cccc(Cl)c1)Cc1cncn1C for me?
Response: 25
